Ref: PubChem BioAssay (NCATS)

# Tested on: Tov-21-G
# ASSAY_TEXT: Primary qHTS to identify gynecologic anti-cancer compounds using libraries of approved drugs and bioactive compounds (AID 1345084); further: nearly all actives have a fitted effect of over 55% in size
# ASSAY_CONDITIONS: Gynecologic cancer cell panel viability, ATPlite luminescence, 48 h; series mostly up to 57.5 µM
Results filed as inconclusive are left out. Activity calls are given as the source filed them. The call rests on the fitted dose curve; in most records, active means well fitted cell-killing curve with a large enough effect; inconclusive means small, poorly fitted or top-dose-only effect, or effect the other way; inactive means flat fitted curve, though single readings scatter.
Write down one outcome, taken from active, inactive

Request: Outcome? COC(CCc1ccc(O)cc1)CC(=O)CCc1ccc(O)cc1 (centres undefined)
Response: inactive

Request: Now try CC(O)(C(=O)C1CC1(CO)COC1OC(CO)C(O)C(O)C1O)C1C(O)CC2C3CC=C4CC(O)CC(O)C4(C)C3C(O)CC21C (centres undefined) .
Response: active

Request: Now try NC(=O)CCCSc1nc(N)nc(-c2c(Cl)cc3c4c(cccc24)COC3)n1 .
Response: active

Request: Now try c1cc(-c2cnn3cc(-c4ccc(N5CCNCC5)cc4)cnc23)c2cccnc2c1 .
Response: inactive

Request: Now try Cc1[nH]c2ccccc2c1CCNCc1ccc(/C=C/C(=O)NO)cc1 .
Response: active

Request: Now try C=C(C(=O)O)[C@@H]1CC=C(CCC(C)=O)[C@@H](C)CC1 .
Response: inactive

Request: Now try CCC[C@@]1(CCc2ccccc2)CC(O)=C([C@H](CC)c2cccc(NS(=O)(=O)c3ccc(C(F)(F)F)cn3)c2)C(=O)O1 .
Response: inactive

Request: Now try C=CC(C)(C)C12CC3C(=O)N4C(CC5(C(C)(C)C=C)c6ccccc6NC45)C(=O)N3C1Nc1ccccc12 (centres undefined) .
Response: inactive

Request: Now try CCC(CC)Nc1nc(C)c(-c2ccc(OC(F)(F)F)cc2OC)nc1OC .
Response: inactive
